# assay-system: T1, AFP158/HLA-A*02:01 complex (human)
# T1 construct: biotinylated on the BSP by BirA for ELISA and panning; also called biotinylated AFP158/HLA-A*02:01 complex; Bio-AFP158
# assay-remarks: SPR, scFv-mIgG2aFc from supernatant captured, complex as analyte

binder	kon / M⁻¹ s⁻¹
AS179732 VL1VH1g1 scFv-mIgG2aFc (Fc fusion, not shown: a dimerising Fc or GST; small tags and cut ends) scFv: QSVLTQPPSASGTPGQRVTISCTGSSSNIGGNYVNWYQQLPGTAPKLLIYDNSNRASGVPDRFSGSKSGTSASLAISGLQSEDEADYYCASWDDSLSGAVFGGGTKLTVLGGGGSGGGGSGGGGSEVQLVESGGGLVQPGGSLRLSCAASGFTFLNYAMSWVRQAPGKGLEWVSSNSGAGSTYYADSVKGRFTISRDNSKNTLYLQMNSLRAEDTAVYYCAKGTNVGSWSSLHYWGQGTLVTVSS	130000
